B1: H2-Kb / E9 (parent)
chain 1: QQKVQQSPESLTVSEGAMASLNCTFSDRSSDNFRWYRQHSGKGLEVLVSIFSDGEKEEGSFTAHLNRASLHVFLHIREPQPSDSALYLCAVSRSSGSWQLIFGSGTQLTVMP
chain 2: NSGVVQSPRYIIKGKGERSILKCIPISGHLSVAWYQQTQGQELKFFIQHYDKMERDKGNLPSRFSVQQFDDYHSEMNMSALELEDSAVYFCASSRDSNNQAPLFGEGTRLSVL
chain 3: not shown
chain 4: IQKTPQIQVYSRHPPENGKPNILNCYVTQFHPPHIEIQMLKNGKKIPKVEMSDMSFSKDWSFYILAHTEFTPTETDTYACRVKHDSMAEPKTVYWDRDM
chain 5: SIINFEKL

variants of: B1; experiment: % of reporter cells activated (NFAT-GFP), raw; details: with E9; scale: % of reporter cells activated; also: test concentration or dose not given here
Measured Parameter: ratio to parent

Solved entries:
Variant Description	ratio to parent
chain 5 I2Q	1.77
chain 5 F5N	2.01

1: chain 5 E6S
2: chain 5 E6N
Prompt: Between the entries labeled 1 and 2 , whose measured ratio to parent is lower? # reply format: chosen label
Completion: 2

Cited source for all entries: paper PMC11480844
